Assignment: determine reported log10 of IC50 for the given molecules.
- tested-on: recombinant human KIT tyrosine kinase protein (Homo sapiens (Human), UniProt P10721)
- Sequence (P10721 546-976): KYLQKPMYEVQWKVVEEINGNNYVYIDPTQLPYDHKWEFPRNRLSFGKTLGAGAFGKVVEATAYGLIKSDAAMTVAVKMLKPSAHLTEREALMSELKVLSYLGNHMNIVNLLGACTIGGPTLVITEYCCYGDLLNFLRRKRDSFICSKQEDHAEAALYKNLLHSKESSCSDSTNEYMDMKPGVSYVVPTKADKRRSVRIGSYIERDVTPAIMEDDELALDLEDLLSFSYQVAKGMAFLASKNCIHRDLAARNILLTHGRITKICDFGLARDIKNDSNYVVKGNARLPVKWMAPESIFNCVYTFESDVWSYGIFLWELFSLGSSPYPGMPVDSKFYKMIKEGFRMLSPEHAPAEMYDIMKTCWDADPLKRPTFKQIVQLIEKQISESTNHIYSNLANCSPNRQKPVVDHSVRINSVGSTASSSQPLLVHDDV
- procedure-summary: KIT tyrosine kinase assay (ADP-Glo)
- Assay type: biochemical
- test-settings: Table 99
# log10 transformed; quantity=IC50; unit=nM

• CN(c1ccc(CNC(=O)c2cc(F)c3[nH]c(=O)[nH]c3c2)cn1)C1CC(F)(F)C1 = 1.76

Here are 2 molecules. What values of log10 of IC50 were reported for them?
1. Cn1c(=O)[nH]c2cc(C(=O)NCc3cnc4c(c3)CCN4c3c(F)cccc3F)ccc21
2. Cn1c(=O)[nH]c2cc(C(=O)NCc3ccc(OC4CC(F)(F)C4)nc3)ccc21

1: 1.74; 2: 2.80

Here are 3 molecules. What values of log10 of IC50 were reported for them?
1. CN(c1ccc(CNC(=O)c2ccc3c(c2)[nH]c(=O)n3C)cn1)C1CC(OC(F)(F)F)C1 (single isomer, unassigned) [107 Isomer I]
2. CN(c1ccc(CNC(=O)c2ccc3c(c2)[nH]c(=O)n3C)cn1)C1[C@H]2CC(F)(F)C[C@@H]12 (stereo partly shown)
3. CN(c1ccc2c(c1)COC2)c1ccc(CNC(=O)c2ccc3c(c2)[nH]c(=O)n3C)cn1

1.26
1.52
1.60

What does the data say about its log10 of IC50? Entry: Cn1c(=O)[nH]c2cc(C(=O)NCc3ccc(OC4CC(C(F)(F)F)C4)nc3)ccc21 (stereo not shown)
1.62
